- tested system: GSK3α (GST-full length GSK3α) (Homo sapiens (Human))
- Sequence (P49840 whole entry): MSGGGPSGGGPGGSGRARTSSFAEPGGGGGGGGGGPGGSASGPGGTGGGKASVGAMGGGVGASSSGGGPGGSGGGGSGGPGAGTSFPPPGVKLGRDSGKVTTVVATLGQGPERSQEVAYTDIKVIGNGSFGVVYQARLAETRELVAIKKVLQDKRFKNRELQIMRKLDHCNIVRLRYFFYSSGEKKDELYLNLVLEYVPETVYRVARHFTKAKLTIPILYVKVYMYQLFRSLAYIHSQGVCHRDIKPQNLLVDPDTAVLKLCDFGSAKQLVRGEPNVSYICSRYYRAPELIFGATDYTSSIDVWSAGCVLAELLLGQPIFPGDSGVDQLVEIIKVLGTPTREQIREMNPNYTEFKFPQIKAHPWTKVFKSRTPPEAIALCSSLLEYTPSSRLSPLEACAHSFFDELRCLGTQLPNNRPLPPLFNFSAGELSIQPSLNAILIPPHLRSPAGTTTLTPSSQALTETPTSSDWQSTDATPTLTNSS
- assay method text: GSK3α TR-FRET kinase assay
- Format: biochemical
- condition label: 1 nM GSK3α, 4 μM ATP, 30 minute preincubation, Table 16; read-out: GSK3-A TR-FRET BIOCHEMICAL (TR-FRET); IC50
pIC50: −log10 of the molar value.
measurement name: pIC50

Ask: Look up pIC50: CC1(C)CC(=O)C2=C(C1)Nc1n[nH]cc1C21CN(CC2CCCC2)C1
Reply: < 5.30

Ask: I am curious: what pIC50 value has been reported for CC1(C)CC(=O)C2=C(C1)Nc1n[nH]cc1[C@@]21CCCc2ccccc21 ?
Reply: 5.30 to 6.00

Ask: Can you share its pIC50? I mean this molecule: CCC1(c2cccc(C(F)(F)F)c2)C2=C(CCN(c3cccs3)C2=O)Nc2n[nH]cc21 (stereo not shown)
Reply: ≥ 7.00

Ask: Report pIC50 for O=C1C[C@@H](C(F)(F)F)CC2=C1C1(CCOCC1)c1c[nH]nc1N2 please.
Reply: 6.00 to 7.00

Ask: Suppose we examine the molecule CCC1(c2cccc(-c3cnn(C4CC4)c3)c2)C2=C(CC(C)(C)CC2=O)Nc2n[nH]cc21 (stereo not shown) ; what pIC50 value has been reported?
Reply: ≥ 7.00

Ask: Bench note: what pIC50 did CCC1(c2cccc(-c3cn(C)nc3C)c2)C2=C(CC(C)(C)CC2=O)Nc2n[nH]cc21 (stereo not shown) show?
Reply: ≥ 7.00

Ask: Could you share which pIC50 value was measured for CCC1(c2cccc(N(CCc3ccccc3)C(C)=O)c2)C2=C(CC(C)(C)CC2=O)Nc2n[nH]cc21 (stereo not shown) ?
Reply: ≥ 7.00

Ask: So what's the measured pIC50 for this one? CC1(C)CC(=O)C2=C(C1)Nc1n[nH]cc1C21CN(c2ccncn2)C1
Reply: 5.30 to 6.00

Ask: Look up pIC50 for this molecule: CCC1(c2cccc(-c3ccnc(C(F)(F)F)c3)c2)C2=C(CC(C)(C)CC2=O)Nc2n[nH]cc21 (stereo not shown) [Compound 913348]
Reply: ≥ 7.00

Ask: I have this molecule here, CCC1(c2cccc(S(=O)(=O)c3ccccc3)c2)C2=C(CC(C)(C)CC2=O)Nc2n[nH]cc21 (stereo not shown) , and I need its recorded pIC50.
Reply: ≥ 7.00

Ask: Query (molecule): CCC1(c2cccc(-c3ccnn3C(C)C)c2)C2=C(CC(C)(C)CC2=O)Nc2n[nH]cc21 (stereo not shown) ; field requested: pIC50
Reply: ≥ 7.00

Ask: Which pIC50 is reported for this molecule? CCC1(c2cccc(-c3cc(C)ncc3F)c2)C2=C(CC(C)(C)CC2=O)Nc2n[nH]cc21 (stereo not shown) [Compound 927339]
Reply: 5.30 to 6.00

Ask: Please report the recorded pIC50 for CC1(C)CC(=O)C2=C(C1)Nc1n[nH]cc1C21CN(c2ccncc2)C1 .
Reply: < 5.30

Ask: # get_value(readout='pIC50', item= CCC1(c2cccc(-c3ccnc(C(F)(F)F)c3)c2)C2=C(CC(C)(C)CC2=O)Nc2n[nH]cc21 (stereo not shown) [Compound 913350] )
Reply: 6.00 to 7.00

Ask: What value of measured pIC50 is listed for CCC1(c2cccc(Br)c2)C2=C(CC(C)(C)C2=O)Nc2n[nH]cc21 (stereo not shown) ?
Reply: 6.00 to 7.00

Ask: State the recorded pIC50 for this entry: CC[C@]1(c2cccc(OC)c2)C2=C(CC(C)(C)NC2=O)Nc2n[nH]c(C)c21
Reply: 5.30 to 6.00

From: patent US20250313563A1
